- study system: HLA-B*15:42
- assay info: IEDB peptide-MHC binding, purified MHC/competitive/fluorescence; filed as Kd, often an IC50 or EC50 that approximates it; bounds were set here for any values at or beyond the usual limits of such assays
- applied conditions: source organism: Mycobacterium tuberculosis C
attribute measured: Kd

Please respond with reported Kd (system HLA-B*15:42) for "YPRNGWPAL" .
≥ 5 µM

* * *

- study system: HLA-B*15:01
- assay info: IEDB peptide-MHC binding, purified MHC/competitive/fluorescence; filed as Kd, often an IC50 or EC50 that approximates it; bounds were set here for any values at or beyond the usual limits of such assays
- applied conditions: source organism: Escherichia coli O139:H28 str. E24377A
attribute measured: Kd (nM)
Entry rule: numbers only, all in nM.

For the sequence "RQGWARAML" , give its measured Kd value.
143

* * *

- study system: HLA-A*02:01
- assay info: IEDB peptide-MHC binding, purified MHC/competitive/radioactivity; filed as Kd, often an IC50 or EC50 that approximates it; bounds were set here for any values at or beyond the usual limits of such assays
- applied conditions: source organism: Trypanosoma cruzi
attribute measured: pKd
When answering, recall that pKd equals minus log10 of the concentration in mol/L, and write that number alone.

For the sequence "LLGLWGIAAS" , give its measured pKd value.
5.60

For the sequence "GLLPLLLLLL" , give its measured pKd value.
7.18

For the sequence "LLGLWGFAAA" , give its measured pKd value.
7.16

* * *

- study system: HLA-B*08:01
- assay info: IEDB peptide-MHC binding, purified MHC/competitive/radioactivity; filed as Kd, often an IC50 or EC50 that approximates it; bounds were set here for any values at or beyond the usual limits of such assays
- applied conditions: source organism: Vaccinia virus Copenhagen
Catalogue of pKd readings, one per entry.
When answering, recall that pKd equals minus log10 of the concentration in mol/L, and write that number alone.

biopolymer sequence: YTLYKKLSF
study system: HLA-B*08:01
pKd: 7.79

From here, focus on the item given below.
For the sequence "MNLYSFTIV" , give its measured pKd value.
5.74

* * *

- study system: HLA-A*02:17
- assay info: IEDB peptide-MHC binding, purified MHC/competitive/radioactivity; filed as Kd, often an IC50 or EC50 that approximates it; bounds were set here for any values at or beyond the usual limits of such assays
- applied conditions: source organism: Dengue virus 2 Jamaica/1409/1983
attribute measured: pKd
When answering, recall that pKd equals minus log10 of the concentration in mol/L, and write that number alone.

biopolymer sequence: VLNPYMPSV
pKd: 8.09

For the sequence "YQLAVTIMA" , give its measured pKd value.
4.97

* * *

- study system: HLA-A*68:02
- assay info: IEDB peptide-MHC binding, purified MHC/competitive/fluorescence; filed as Kd, often an IC50 or EC50 that approximates it; bounds were set here for any values at or beyond the usual limits of such assays
- applied conditions: source organism: Entamoeba histolytica HM-1:IMSS
attribute measured: Kd (nM)
Entry rule: numbers only, all in nM.

For the sequence "NPAACSYMV" , give its measured Kd value.
28.3

* * *

Catalogue of pKd readings, one per entry.
- study system: HLA-A*11:01
- assay info: IEDB peptide-MHC binding, purified MHC/competitive/radioactivity; filed as Kd, often an IC50 or EC50 that approximates it; bounds were set here for any values at or beyond the usual limits of such assays
- applied conditions: source organism: Lymphocytic choriomeningitis virus (strain Armstrong)
When answering, recall that pKd equals minus log10 of the concentration in mol/L, and write that number alone.

Answered examples (2):
biopolymer sequence: GNFSWFPHK
endpoint result: 7.10
//
biopolymer sequence: RNPYENILYK
endpoint result: 5.46

From here, focus on the item given below.
For the sequence "TYLGPLSCK" , give its measured pKd value.
7.67
